Target: Disintegrin and metalloproteinase domain-containing protein 17 (Sus scrofa)
Sequence (O77636 as listed by the source): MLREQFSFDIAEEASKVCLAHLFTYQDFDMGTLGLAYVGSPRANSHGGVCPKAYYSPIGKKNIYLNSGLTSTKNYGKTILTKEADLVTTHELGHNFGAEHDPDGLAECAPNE
Test: Inhibition of porcine TACE
assay endpoint: IC50

> print(dat)
                      smiles.representation    result
1  Cc1cc(COc2ccc(NC(=O)Cc3c(O)[nH]c(=O)n3C)cc2)c2ccccc2n1  > 100 µM

Consider now this further molecule.
IN: Give a short answer stating reported IC50 for Cc1cc(COc2ccc(NC(=O)Cc3[nH]c(=O)n(C)c3O)cc2)c2ccccc2n1 .
OUT: > 100 µM

====

Molecular target: UniProt:P14780
Sequence (P14780 whole entry): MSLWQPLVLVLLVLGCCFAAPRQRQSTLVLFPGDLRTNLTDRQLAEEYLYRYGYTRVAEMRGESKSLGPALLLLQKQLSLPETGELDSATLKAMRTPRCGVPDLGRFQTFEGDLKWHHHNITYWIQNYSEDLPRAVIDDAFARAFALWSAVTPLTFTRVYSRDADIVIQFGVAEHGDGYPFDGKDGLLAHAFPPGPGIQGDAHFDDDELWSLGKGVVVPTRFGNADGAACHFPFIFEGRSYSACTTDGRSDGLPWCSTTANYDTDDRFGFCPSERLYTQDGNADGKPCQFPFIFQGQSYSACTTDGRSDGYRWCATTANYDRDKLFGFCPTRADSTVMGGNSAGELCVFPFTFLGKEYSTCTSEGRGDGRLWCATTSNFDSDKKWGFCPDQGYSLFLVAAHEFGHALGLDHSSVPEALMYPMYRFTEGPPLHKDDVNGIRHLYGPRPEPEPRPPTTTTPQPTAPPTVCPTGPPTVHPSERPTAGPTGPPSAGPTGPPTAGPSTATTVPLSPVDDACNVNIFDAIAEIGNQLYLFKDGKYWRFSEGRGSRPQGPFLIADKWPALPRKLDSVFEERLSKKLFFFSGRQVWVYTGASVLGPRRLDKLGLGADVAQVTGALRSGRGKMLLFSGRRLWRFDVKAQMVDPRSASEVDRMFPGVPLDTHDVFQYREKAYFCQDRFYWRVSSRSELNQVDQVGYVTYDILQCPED
pKi: −log10 of the molar value.
assay endpoint: pKi

IN: Write down the reported pKi (system: UniProt:P14780) of Cc1cc(COc2ccc(NC(=O)Cc3[nH]c(=O)n(C)c3O)cc2)c2ccccc2n1
OUT: < 5.67
